Sourced from paper PMC10761680

Biological target: human ENPP1 (Homo sapiens, UniProt P22413)
Test: Fluorescent determination of IC50/Ki using Kyoto Green (ATP hydrolysis)

>  <Molecule>
O=c1c(O)c(-c2ccc(O)c(O)c2)oc2cc(O)cc(O)c12 [Quercetin, 3,5,7,3′,4′-pentahydroxyflavone]

>  <IC50 / nM>
4.5

$$$$

----------
Target: human ENPP1 (Homo sapiens, UniProt P22413)
Sequence (P22413 98-925 limits assumed): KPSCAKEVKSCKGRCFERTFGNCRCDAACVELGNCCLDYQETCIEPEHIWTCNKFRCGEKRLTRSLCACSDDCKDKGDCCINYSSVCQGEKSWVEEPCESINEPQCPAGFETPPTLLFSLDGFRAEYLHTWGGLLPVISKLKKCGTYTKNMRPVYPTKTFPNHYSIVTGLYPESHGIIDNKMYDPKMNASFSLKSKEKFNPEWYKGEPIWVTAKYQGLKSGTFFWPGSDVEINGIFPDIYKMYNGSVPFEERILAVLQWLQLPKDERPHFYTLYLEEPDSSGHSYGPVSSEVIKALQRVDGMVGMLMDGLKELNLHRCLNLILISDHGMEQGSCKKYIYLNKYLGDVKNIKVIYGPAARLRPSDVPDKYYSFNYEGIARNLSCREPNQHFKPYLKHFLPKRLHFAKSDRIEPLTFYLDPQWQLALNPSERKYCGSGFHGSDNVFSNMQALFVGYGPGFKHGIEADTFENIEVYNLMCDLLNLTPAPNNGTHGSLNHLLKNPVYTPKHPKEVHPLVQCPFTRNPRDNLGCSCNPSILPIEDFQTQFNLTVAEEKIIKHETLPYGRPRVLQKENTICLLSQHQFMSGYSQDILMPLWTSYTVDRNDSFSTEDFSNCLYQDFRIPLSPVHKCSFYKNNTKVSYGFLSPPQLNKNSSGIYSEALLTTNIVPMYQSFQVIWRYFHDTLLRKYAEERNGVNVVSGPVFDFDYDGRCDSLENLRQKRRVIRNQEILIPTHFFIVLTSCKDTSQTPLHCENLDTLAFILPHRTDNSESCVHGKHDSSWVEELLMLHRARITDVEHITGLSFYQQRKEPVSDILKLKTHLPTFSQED
Test: Bioluminescent assay of ENPP1 using luciferin/luciferase ATP assay kit
pIC50: −log10 of the molar value.

>  <Compound>
O=c1c(O)c(-c2ccc(O)c(O)c2)oc2cc(O)cc(O)c12 [Quercetin, 3,5,7,3′,4′-pentahydroxyflavone]

>  <Tgt>
human ENPP1 (Homo sapiens, UniProt P22413)

>  <pIC50>
8.26

$$$$
